# credit: patent US20220411492A1

Molecular target: human Claudin 18.2 (hCLDN18.2) (human, UniProt P56856-2 1-261)
Test: cell-based or functional assay
propertyMeasured: ADCC EC50 (µg/mL)
Give a bare numeral; the unit µg/mL is implied.

ch-42D2 (antibody, V domains shown, also called chimeric antibody of clone 42D2) VH: EVQLQQSGPVLVKPGASVKMSCKASGYTFTDYQMNWVKQSHGKSLEWIGFINPYNGGIRYNQKFKGKATLTVDKSSSTAYMELNSLTSEDSAVYYCATIYFGNSFANWGQGTLVTVSA VL: DIVMTQSPSSLTVTAGEKVTMSCKPSQSLLNSGNQKNYLTWYQQKPGQPPRLLIYWASTRESGVPDRFTGSGSGTDFTLTISSVQAEDLAVYYCQNDYIYPYTFGGGTNLEIK; 0.02
ch-39C8 (antibody, V domains shown, also called chimeric antibody of clone 39C8) VH: QVQLQQSGAGLVKPGASVKISCKASGYAFSSYWMIWVKQRPGKGLEWIGQIYPGDGDTNYNGKFKGKATLTADKSSSTAFMQLSSLTSEDSAVYFCTRIYYGNAFAYWGQGTLVTVSA VL: DIVMTQSPSSLTVTAGEKVTMSCKSSQSLLNSGNQKNYLTWYQQKPGQPPKLLIYWASTRESGVPDRFTGSGSGTDFTLTISSVQAEDLAVYYCQNDYSYPFTFGSGTKLEIK; 0.022
ch-252F11 (antibody, V domains shown, also called chimeric antibody of clone 252F11) VH: EIQLVESGGGLVRPGGSLKLSCAASGFSFKNYVMSWVRQSPERRLEWVAEIRTGGDYTYYVDTVTGRFTISRDNAKNTLYLEMTSLRSEDTATYYCARVGYGNSLDYWGQGTTLTVSS VL: DIVMTQSPSSLTVTAGEKVTMSCKSSQSLLNSGNQKNYLTWYQQKPGQPPKLLIYWASTRESGVPDRFTGSGSGTDFTLTISSVQAEDLAVYSCQNNYFYPLTFGAGTELELK; 0.022
ch-251H11 (antibody, V domains shown, also called chimeric antibody of clone 251H11) VH: QVQLKQSGAELVRPGASVKLSCKTSGYTFTTFWIHWIKQRSGQGLEWIAKIYPGTGYTYYNEKFKGKATLTADKSSSAAYMQLSSLKSEDSAVYFCAREGYGKGNAVDFWGQGSSVTVSS VL: DIVMTQSPSSLTVTAGEKVTMSCKSSQSLFNSGNQKNYLTWYQQKPGQPPKLLIYWASTRESGVPDRFTGSGSGTDFTLTIDSVQAEDLAVYYCQNDYTYPSTFGGGTNLEIK; 0.024

Task item: Query (binder): ch-76D11 (antibody, V domains shown, also called chimeric antibody of clone 76D11) VH: QVQLQQSGAELMKPGASVKLSCKASGYTFTGYWIEWIKQRPGHGLEWIGEILPGSGSIKYNEKFKDKATFTADTSSNTAYMQLSSLTTEDSAIYYCARKGLRGNSFDYWGQGTTLTVSS VL: DIVMTQSPSSLTVTAGEKVTMSCKSSQSLLNSGNQKNYLTWYQQKPGQPPKRLIYWASTRESGVPDRFTGSGSGTDFTLTISSVQAEDLAVYYCQNDYYYPFTFGSGTKLEIK ; field requested: ADCC EC50
Reply: 0.021
